Molecular target: T1, HCV bt-134-154 (Peptide 1, HCVc 134-154) (Hepatitis C virus (numbering per HCV-1), biotin (carboxy-terminal per; N-terminal per))
T1 peptide: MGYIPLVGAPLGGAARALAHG
Assay: EIA, captured mAb + biotin peptide
# reported Reactivity (OD 492 nm); entries follow
assay-endpoint: Reactivity (OD 492 nm) (OD units)

1) HCV 208A-874 (antibody, V domains shown) VH: QVQLQQPGAELVKPGASVKLSCKASGYTLSSYWMHWVKQRPGQGLEWIGEIHPSDSYTSYNQKFKDKATLTVDKSSSTAYMQLSSLTSEDSAVYYCARGGYYRYDEFAYWGQGTLVTVSA VL: DIVMTQSHKFMSTSIGDRVSITCKASQNVSPAVAWYQQKPGQSPKLLIYSASSRYTGVPDRFTGSGSGTAFTFTISSVQAEDLAVYFCQQHFSTPWTFGGGTMLEIKR: 0.05
2) HCV 208A-222 (antibody, V domains shown) VH: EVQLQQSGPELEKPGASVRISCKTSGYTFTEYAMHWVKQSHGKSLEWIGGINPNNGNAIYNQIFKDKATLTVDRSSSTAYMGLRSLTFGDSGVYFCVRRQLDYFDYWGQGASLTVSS VL: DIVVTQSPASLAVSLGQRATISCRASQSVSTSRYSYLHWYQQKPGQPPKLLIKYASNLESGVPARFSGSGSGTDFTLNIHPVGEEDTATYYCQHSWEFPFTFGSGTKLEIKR: 0.06
3) HCV 208B-517 (antibody, V domains shown) VH: QVQLKQSGPGLVQPSQSLSITCTVSGFSLITHGVHWVRQSPGKGLEWLGVIWSGGSTDYNAAFISRLSISKDTSKSQVFLKMSSLQADDTAIYYCARNGGATAFDYWGQGTTLTVSS VL: DIVMTQSPATLSVTPGDRVSLSCRASQSISDYLHWYQQKSHESPRLLIKYASQSISGIPSRFRGSGSGSHFTLSINSVEPEDVGVYYCQNGHSFPWTFGGGTKLEIKR: 0.1
4) HCV 208B-672 (antibody, V domains shown) VH: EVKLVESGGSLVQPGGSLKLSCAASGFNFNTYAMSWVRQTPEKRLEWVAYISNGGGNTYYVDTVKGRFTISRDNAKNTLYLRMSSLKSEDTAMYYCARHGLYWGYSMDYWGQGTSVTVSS VL: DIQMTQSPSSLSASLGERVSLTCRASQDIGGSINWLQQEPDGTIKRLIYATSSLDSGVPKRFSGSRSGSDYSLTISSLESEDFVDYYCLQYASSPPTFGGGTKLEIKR: 0.08
5) HCV 208A-133 (antibody, V domains shown) VH: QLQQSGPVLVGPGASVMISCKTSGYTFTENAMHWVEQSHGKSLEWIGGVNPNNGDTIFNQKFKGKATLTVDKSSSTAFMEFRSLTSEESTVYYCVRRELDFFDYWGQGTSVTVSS VL: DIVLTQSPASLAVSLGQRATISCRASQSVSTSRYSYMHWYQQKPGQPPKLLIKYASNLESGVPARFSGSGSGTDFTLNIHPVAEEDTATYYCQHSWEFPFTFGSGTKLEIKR: 0.1
